- Experimental target: SARS-CoV-2 3CLpro (Severe acute respiratory syndrome coronavirus 2)
- Assay notes: biochemical
Measurement kind: pIC50
Value format note: pIC50 is -log10 of concentration (mol/L); just state the number.

CCC(C)(C)[C@H](NC(=O)C1CC1)C(=O)N1C[C@@H]2CCC[C@@H]2[C@H]1C(=O)NN(C[C@@H]1CCCNC1=O)C(=O)[C@H](F)Cl [Example 167a]	8.00

Ask: Give the reported pIC50 for this compound. `CC[C@@H](C)[C@H](NC(=O)C(F)F)C(=O)N1C[C@H]2[C@@H]([C@H]1C(=O)NN(C[C@@H]1CCNC1=O)C(=O)[C@H](F)Cl)C2(C)C`
Reply: 8.10

Ask: Give the reported pIC50 for this compound. `CC[C@H](C)[C@H](NC(=O)C1CC(F)(F)C1)C(=O)N1C[C@@H]2CCC[C@@H]2[C@H]1C(=O)NN(C[C@@H]1CCNC1=O)C(=O)[C@H](F)Cl`
Reply: 8.00

Ask: Give the reported pIC50 for this compound. `CCC(C)(C)[C@H](NC(=O)C(F)F)C(=O)N1C[C@@H]2CCC[C@@H]2[C@H]1C(=O)NN(C[C@@H]1CCNC1=O)C(=O)[C@H](F)Cl`
Reply: 7.89

Ask: Give the reported pIC50 for this compound. CCC(C)(C)[C@H](NC(=O)C1CC1)C(=O)N1CC(C)(C)C[C@H]1C(=O)NN(C[C@H]1CCCNC1=O)C(=O)[C@H](F)Cl [Example 168b]
Reply: 7.00

* * *

In what follows, each item is paired with its pIC50 for MERS-CoV 3CLpro (Middle East respiratory syndrome-related coronavirus, UniProt K9N7C7).
Value format note: pIC50 is -log10 of concentration (mol/L); just state the number.

Example entries begin here.
CCC(C)(C)[C@H](NC(=O)C1(F)CC1)C(=O)N1C[C@@H]2CCC[C@@H]2[C@H]1C(=O)NN(C[C@@H]1CCNC1=O)C(=O)[C@H](F)Cl [Example 149]	6.86
CCC(C)[C@H](NC(=O)C1(F)CCC1)C(=O)N1C[C@@H]2CCC[C@@H]2[C@H]1C(=O)NN(C[C@@H]1CCNC1=O)C(=O)[C@H](F)Cl (stereo in doubt) [Example 125]	6.94
CC[C@H](C)[C@H](NC(=O)C1CC1(F)F)C(=O)N1C[C@@H]2CCC[C@@H]2[C@H]1C(=O)NN(C[C@@H]1CCNC1=O)C(=O)[C@H](F)Cl (mixture of isomers) [Example 41]	6.66
CC1(C)[C@@H]2[C@@H](C(=O)NN(C[C@@H]3CCNC3=O)C(=O)[C@H](F)Cl)N(C(=O)[C@@H](NC(=O)C(F)(F)F)C3CC3)C[C@@H]21 [Example 2]	6.75
CC[C@@H](C)[C@H](NC(=O)[C@@H](C)F)C(=O)N1C[C@H]2[C@@H]([C@H]1C(=O)NN(C[C@@H]1CCNC1=O)C(=O)[C@@H](F)Cl)C2(C)C [Example 123]	6.84
CC1(C)[C@@H]2[C@@H](C(=O)NN(C[C@@H]3CCNC3=O)C(=O)[C@H](F)Cl)N(C(=O)[C@@H](NC(=O)C3(F)CC3)C3CCC3)C[C@@H]21 [Example 156]	6.97
CCC(CC)[C@H](NC(=O)C(F)F)C(=O)N1C[C@H]2[C@@H]([C@H]1C(=O)NN(C[C@@H]1CCNC1=O)C(=O)[C@H](F)Cl)C2(C)C [Example 131]	6.80
CC(C)(C)[C@H](NC(=O)[C@@H]1CC1(F)F)C(=O)N1C[C@@H]2CCC[C@@H]2[C@H]1C(=O)NN(C[C@@H]1CCCNC1=O)C(=O)[C@@H](F)Cl [Example 197]	7.03
CC(C)(C)[C@H](NC(=O)[C@@H]1CC1(F)F)C(=O)N1C[C@H]2[C@@H]([C@H]1C(=O)NN(C[C@@H]1CCNC1=O)C(=O)[C@@H](F)Cl)C2(C)C [Example 95]	7.15
CC[C@@H](C)[C@H](NC(=O)C(F)(F)F)C(=O)N1C[C@@H]2CCC[C@@H]2[C@H]1C(=O)NN(C[C@@H]1CCNC1=O)C(=O)[C@H](F)Cl [Example 73]	6.96

Ask: Provide measured pIC50 on MERS-CoV 3CLpro (Middle East respiratory syndrome-related coronavirus, UniProt K9N7C7) for CC[C@H](C)[C@H](NC(=O)C1(F)CC1)C(=O)N1C[C@H]2[C@@H]([C@H]1C(=O)NN(C[C@@H]1CCCNC1=O)C(=O)[C@H](F)Cl)C2(C)C [Example 166a] please.
Sequence (K9N7C7 3248-3553): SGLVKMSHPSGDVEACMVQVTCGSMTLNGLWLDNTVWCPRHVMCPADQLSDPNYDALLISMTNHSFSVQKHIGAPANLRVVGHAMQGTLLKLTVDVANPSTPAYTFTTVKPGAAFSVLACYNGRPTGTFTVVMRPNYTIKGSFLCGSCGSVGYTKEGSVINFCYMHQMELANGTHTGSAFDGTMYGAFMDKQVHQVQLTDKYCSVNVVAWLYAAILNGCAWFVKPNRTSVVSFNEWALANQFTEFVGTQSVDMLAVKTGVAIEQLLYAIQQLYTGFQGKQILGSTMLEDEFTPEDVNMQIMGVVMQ
Reply: 6.64

Ask: Provide measured pIC50 on MERS-CoV 3CLpro (Middle East respiratory syndrome-related coronavirus, UniProt K9N7C7) for CC[C@H](C)[C@H](NC(=O)C(C)F)C(=O)N1C[C@H]2[C@@H]([C@H]1C(=O)NN(C[C@@H]1CCNC1=O)C(=O)[C@H](F)Cl)C2(C)C (mixture of isomers) [Example 56] please.
Reply: 7.28

Ask: Provide measured pIC50 on MERS-CoV 3CLpro (Middle East respiratory syndrome-related coronavirus, UniProt K9N7C7) for CC[C@@H](C)[C@H](NC(=O)C1CC1)C(=O)N1C[C@H]2[C@@H]([C@H]1C(=O)NN(C[C@@H]1CCNC1=O)C(=O)[C@H](F)Cl)C2(C)C [Example 118] please.
Reply: 6.96

Ask: Provide measured pIC50 on MERS-CoV 3CLpro (Middle East respiratory syndrome-related coronavirus, UniProt K9N7C7) for CCC(C)(C)[C@H](NC(=O)C1CC1)C(=O)N1CC(C)(C)C[C@H]1C(=O)NN(C[C@@H]1CCCNC1=O)C(=O)[C@H](F)Cl [Example 168a] please.
Reply: 6.54

Ask: Provide measured pIC50 on MERS-CoV 3CLpro (Middle East respiratory syndrome-related coronavirus, UniProt K9N7C7) for CCC(C)(C)[C@H](NC(=O)C(F)F)C(=O)N1C[C@H]2[C@@H]([C@H]1C(=O)NN(C[C@@H]1CCNC1=O)C(=O)[C@@H](F)Cl)C2(C)C [Example 148] please.
Reply: 6.89

Ask: Provide measured pIC50 on MERS-CoV 3CLpro (Middle East respiratory syndrome-related coronavirus, UniProt K9N7C7) for CC[C@@H](C)[C@H](NC(=O)C1(F)CC1)C(=O)N1C[C@H]2[C@@H]([C@H]1C(=O)NN(C[C@@H]1CCNC1=O)C(=O)[C@H](F)Cl)C2(C)C [Example 115] please.
Reply: 6.99

Ask: Provide measured pIC50 on MERS-CoV 3CLpro (Middle East respiratory syndrome-related coronavirus, UniProt K9N7C7) for CSCC[C@H](NC(=O)C(F)(F)F)C(=O)N1C[C@H]2[C@@H]([C@H]1C(=O)NN(C[C@@H]1CCNC1=O)C(=O)[C@H](F)Cl)C2(C)C [Example 69] please.
Reply: 6.60

Ask: Provide measured pIC50 on MERS-CoV 3CLpro (Middle East respiratory syndrome-related coronavirus, UniProt K9N7C7) for CC[C@H](C)[C@H](NC(=O)C1(F)CC1)C(=O)N1C[C@@H]2CCC[C@@H]2[C@H]1C(=O)NN(C[C@@H]1CCNC1=O)C(=O)[C@H](F)Cl [Example 79] please.
Reply: 6.94

Ask: Provide measured pIC50 on MERS-CoV 3CLpro (Middle East respiratory syndrome-related coronavirus, UniProt K9N7C7) for CCC(CC)[C@H](NC(=O)C(F)F)C(=O)N1C[C@@H]2CCC[C@@H]2[C@H]1C(=O)NN(C[C@@H]1CCNC1=O)C(=O)[C@H](F)Cl [Example 136] please.
Reply: 7.13
